- SYSTEM_TESTED: Aromatase (Homo sapiens)
- Sequence (P11511 whole entry): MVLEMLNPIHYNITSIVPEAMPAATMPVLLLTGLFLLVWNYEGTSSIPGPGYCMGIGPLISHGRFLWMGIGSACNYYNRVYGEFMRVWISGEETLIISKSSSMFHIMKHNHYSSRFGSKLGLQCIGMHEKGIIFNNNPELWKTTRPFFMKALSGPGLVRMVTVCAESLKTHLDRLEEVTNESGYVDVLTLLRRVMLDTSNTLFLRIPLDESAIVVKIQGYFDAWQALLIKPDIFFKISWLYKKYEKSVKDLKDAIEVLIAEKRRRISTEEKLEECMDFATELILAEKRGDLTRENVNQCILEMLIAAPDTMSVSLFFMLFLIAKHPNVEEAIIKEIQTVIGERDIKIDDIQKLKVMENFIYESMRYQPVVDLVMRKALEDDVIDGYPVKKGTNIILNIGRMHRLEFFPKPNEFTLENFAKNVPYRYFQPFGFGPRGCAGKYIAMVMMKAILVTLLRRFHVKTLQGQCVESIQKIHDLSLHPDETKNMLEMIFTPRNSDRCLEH
REPORTED_METRIC: pIC50
# reply with the number alone; pIC50 is -log10 of concentration in mol/L

Inquiry: # input molecule: `N#Cc1ccc(N(Cc2ccc(Br)cc2)n2cnnc2)cc1` ; wanted: its pIC50
Reply text: 9.30
